Target: human α2β3γ2 receptors (Homo sapiens (Human), UniProt P18507+P47869)
Procedure summary: 3H-flunitrazepam competition binding, human α2β3γ2 GABAA receptor
Experimental conditions: HEK293 cell membranes, 1 nM 3H-flunitrazepam; read-out: Ki α2
Dear colleague, classification is by Ki, with ranges listed here: low end (below 0.03 µM), middle (0.03 µM to below 0.07 µM), high end (0.07 µM or more)

Completed entries (count: 9):
Place this compound in its band: `Cc1nnn(-c2ccc(C(F)F)cc2)c1COc1ccc(N2CCOC2=O)nn1`
low end

Place this compound in its band: `Cc1nnn(-c2ccc(C(F)F)cc2)c1COc1ccc(N2CCN(C)C(=O)C2)cn1`
middle

Place this compound in its band: `CCNC(=O)C1CN(c2ccc(OCc3c(C)nnn3-c3ccc(C(F)F)cc3)nn2)C1`
high end

Place this compound in its band: `Cc1nnn(-c2ccc(C(F)F)cc2)c1COc1ccc(N2CCNC(=O)C2)cn1`
middle

Place this compound in its band: Cc1nnn(-c2ccc(C(F)F)cc2)c1COc1ccc(N2CC(=O)N3CCNCC3C2)nn1 (stereo not drawn)
low end

Place this compound in its band: `Cc1nnn(-c2ccc(C(F)F)cc2)c1COc1ccc(N2CC(=O)NC(=O)C2)nn1`
low end

Place this compound in its band: `Cc1nnn(-c2ccc(C(F)F)cc2)c1COc1ccc(N2CC(C(=O)NC(C)C)C2)nn1`
high end

Place this compound in its band: `Cc1nnn(-c2ccc(C(F)F)cc2)c1COc1ccc(N2CC(C(=O)Nc3cnn(C)c3)C2)nn1`
middle

Place this compound in its band: `Cc1nnn(-c2ccc(C(F)F)cc2)c1COc1cnc(N2CCNC(=O)C2)cn1`
low end

More entries:
Place this compound in its band: `Cc1nnn(-c2ccc(C(F)F)cc2)c1COc1ccc(N2CCN3CCNC(=O)[C@H]3C2)nn1`
middle

This collection of values is drawn from patent US20250136581A1.
